Here's a batch of molecules along with measured pIC50 for Cholinesterase (Homo sapiens).
pIC50: −log10 of the molar value.

MOLECULE: COc1c2c(cc3c1OCO3)[C@]13C=C[C@H](OC)C[C@@H]1N(C2)C[C@H]3OC(=O)c1ccc(C)cc1
MEASURED TARGET: Cholinesterase (Homo sapiens)
VALUE RELATION SIGN: =
pIC50: 4.55

MOLECULE: COc1ccc(C(=O)O[C@@H]2C[N@@]3Cc4c(cc5c(c4OC)OCO5)[C@@]24C=C[C@H](OC)C[C@H]34)cc1
MEASURED TARGET: Cholinesterase (Homo sapiens)
VALUE RELATION SIGN: <
pIC50: 4.00

MOLECULE: CO[C@@H]1C=C[C@@]23c4cc5c(cc4CN(C[C@@H]2O)[C@H]3C1)OCO5 [(+)-HAEMANTHAMINE]
MEASURED TARGET: Cholinesterase (Homo sapiens)
VALUE RELATION SIGN: <
pIC50: 4.00

MOLECULE: CCC(=O)O[C@@H]1C[N@@]2Cc3c(cc4c(c3OC)OCO4)[C@@]13C=C[C@H](OC)C[C@H]23
MEASURED TARGET: Cholinesterase (Homo sapiens)
VALUE RELATION SIGN: <
pIC50: 4.00

MOLECULE: COc1c2c(cc3c1OCO3)[C@]13C=C[C@H](OC)C[C@@H]1N(C2)C[C@H]3OC(=O)c1ccoc1
MEASURED TARGET: Cholinesterase (Homo sapiens)
VALUE RELATION SIGN: =
pIC50: 4.49

MOLECULE: COc1c2c(cc3c1OCO3)[C@]13C=C[C@H](OC)C[C@@H]1[N@](C2)C[C@H]3O
MEASURED TARGET: Cholinesterase (Homo sapiens)
VALUE RELATION SIGN: <
pIC50: 4.00

MOLECULE: COc1c2c(cc3c1OCO3)[C@]13C=C[C@H](OC)C[C@@H]1[N@](C2)C[C@H]3OC(=O)c1ccccc1C
MEASURED TARGET: Cholinesterase (Homo sapiens)
VALUE RELATION SIGN: =
pIC50: 6.55

MOLECULE: COc1c2c(cc3c1OCO3)[C@]13C=C[C@H](OC)C[C@@H]1N(C2)C[C@H]3OC(=O)c1cccc2ccccc12
MEASURED TARGET: Cholinesterase (Homo sapiens)
VALUE RELATION SIGN: =
pIC50: 7.00

MOLECULE: COc1c2c(cc3c1OCO3)[C@]13C=C[C@H](OC)C[C@@H]1N(C2)C[C@H]3OC(=O)c1cccc(C)c1
MEASURED TARGET: Cholinesterase (Homo sapiens)
VALUE RELATION SIGN: =
pIC50: 6.07

MOLECULE: COc1c2c(cc3c1OCO3)[C@]13C=C[C@H](OC)C[C@@H]1N(C2)C[C@H]3OC(C)=O
MEASURED TARGET: Cholinesterase (Homo sapiens)
VALUE RELATION SIGN: <
pIC50: 4.00

MOLECULE: CCCCC(=O)O[C@@H]1C[N@@]2Cc3c(cc4c(c3OC)OCO4)[C@@]13C=C[C@H](OC)C[C@H]23
MEASURED TARGET: Cholinesterase (Homo sapiens)
VALUE RELATION SIGN: <
pIC50: 4.00

MOLECULE: COc1ccccc1C(=O)O[C@@H]1CN2Cc3c(cc4c(c3OC)OCO4)[C@@]13C=C[C@H](OC)C[C@H]23
MEASURED TARGET: Cholinesterase (Homo sapiens)
VALUE RELATION SIGN: =
pIC50: 6.37

MOLECULE: COc1c2c(cc3c1OCO3)[C@]13C=C[C@H](OC)C[C@@H]1N(C2)C[C@H]3OC(=O)c1cccc([N+](=O)[O-])c1
MEASURED TARGET: Cholinesterase (Homo sapiens)
VALUE RELATION SIGN: =
pIC50: 4.09

MOLECULE: COc1c2c(cc3c1OCO3)[C@]13C=C[C@H](OC)C[C@@H]1N(C2)C[C@H]3OC(=O)C(C)C
MEASURED TARGET: Cholinesterase (Homo sapiens)
VALUE RELATION SIGN: <
pIC50: 4.00

MOLECULE: COc1c2c(cc3c1OCO3)[C@]13C=C[C@H](OC)C[C@@H]1N(C2)C[C@H]3OC(=O)c1ccc2ccccc2c1
MEASURED TARGET: Cholinesterase (Homo sapiens)
VALUE RELATION SIGN: =
pIC50: 4.85

MOLECULE: COc1c2c(cc3c1OCO3)[C@]13C=C[C@H](OC)C[C@@H]1N(C2)C[C@H]3OC(=O)c1ccccc1
MEASURED TARGET: Cholinesterase (Homo sapiens)
VALUE RELATION SIGN: =
pIC50: 5.42

MOLECULE: COc1cccc(C(=O)O[C@@H]2CN3Cc4c(cc5c(c4OC)OCO5)[C@@]24C=C[C@H](OC)C[C@H]34)c1
MEASURED TARGET: Cholinesterase (Homo sapiens)
VALUE RELATION SIGN: =
pIC50: 5.22

MOLECULE: COc1c2c(cc3c1OCO3)[C@]13C=C[C@H](OC)C[C@@H]1N(C2)C[C@H]3OC(=O)c1ccccc1[N+](=O)[O-]
MEASURED TARGET: Cholinesterase (Homo sapiens)
VALUE RELATION SIGN: =
pIC50: 5.64

MOLECULE: CCOc1cc(OCC)cc(C(=O)O[C@@H]2C[N@@]3Cc4c(cc5c(c4OC)OCO5)[C@@]24C=C[C@H](OC)C[C@H]34)c1
MEASURED TARGET: Cholinesterase (Homo sapiens)
VALUE RELATION SIGN: <
pIC50: 4.00

MOLECULE: COc1c2c(cc3c1OCO3)[C@]13C=C[C@H](OC)C[C@@H]1[N@](C2)C[C@H]3OC(=O)c1ccc([N+](=O)[O-])cc1
MEASURED TARGET: Cholinesterase (Homo sapiens)
VALUE RELATION SIGN: <
pIC50: 4.00

MOLECULE: COc1c2c(cc3c1OCO3)[C@]13C=C[C@H](OC)C[C@@H]1N(C2)C[C@H]3OC(=O)c1ccco1
MEASURED TARGET: Cholinesterase (Homo sapiens)
VALUE RELATION SIGN: <
pIC50: 4.00

MOLECULE: COc1ccc(C(=O)O[C@@H]2CN3Cc4c(cc5c(c4OC)OCO5)[C@@]24C=C[C@H](OC)C[C@H]34)cc1OC
MEASURED TARGET: Cholinesterase (Homo sapiens)
VALUE RELATION SIGN: <
pIC50: 4.00

###

target: Cholinesterase (Homo sapiens, UniProt P06276); assay: Inhibition of human BuChE using butyrylthiocholine iodide as substrate at 100 uM measured for 1 min by spectrophotometric based Ellman's method relative to control
Sequence (P06276 whole entry): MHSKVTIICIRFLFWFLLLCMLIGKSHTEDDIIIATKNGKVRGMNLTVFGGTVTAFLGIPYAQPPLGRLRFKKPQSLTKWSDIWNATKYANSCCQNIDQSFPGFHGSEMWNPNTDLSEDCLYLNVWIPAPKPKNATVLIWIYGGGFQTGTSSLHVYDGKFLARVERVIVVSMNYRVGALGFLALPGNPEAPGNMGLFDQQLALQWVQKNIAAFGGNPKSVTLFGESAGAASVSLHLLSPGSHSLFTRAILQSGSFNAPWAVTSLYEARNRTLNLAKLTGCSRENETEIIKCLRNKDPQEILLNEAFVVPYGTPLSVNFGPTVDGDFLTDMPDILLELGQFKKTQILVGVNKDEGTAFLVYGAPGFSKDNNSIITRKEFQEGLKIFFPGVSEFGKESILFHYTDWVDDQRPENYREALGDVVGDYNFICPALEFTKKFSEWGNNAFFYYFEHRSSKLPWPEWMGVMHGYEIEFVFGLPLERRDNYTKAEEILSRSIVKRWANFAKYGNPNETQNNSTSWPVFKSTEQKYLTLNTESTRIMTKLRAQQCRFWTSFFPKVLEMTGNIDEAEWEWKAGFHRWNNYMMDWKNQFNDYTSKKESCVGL
READOUT NAME: inhibition (%)

MOL SMILES: COc1c2c(cc3c1OCO3)[C@]13C=C[C@H](OC)C[C@@H]1[N@](C2)C[C@H]3OC(=O)c1cccc2ccccc12
READOUT NAME: inhibition
ENDPOINT RESULT: 96

MOL SMILES: COc1c2c(cc3c1OCO3)[C@]13C=C[C@H](OC)C[C@@H]1[N@](C2)C[C@H]3OC(=O)c1ccccc1C
READOUT NAME: inhibition
ENDPOINT RESULT: 99

MOL SMILES: COc1c2c(cc3c1OCO3)[C@]13C=C[C@H](OC)C[C@@H]1[N@](C2)C[C@H]3OC(=O)c1ccco1
READOUT NAME: inhibition
ENDPOINT RESULT: 49

MOL SMILES: COc1c2c(cc3c1OCO3)[C@]13C=C[C@H](OC)C[C@@H]1[N@](C2)C[C@H]3OC(=O)c1ccc(C)cc1
READOUT NAME: inhibition
ENDPOINT RESULT: 68

###

molecular target: Acetylcholinesterase (Homo sapiens); experiment: Inhibition of human AChE using acetylthiocholine iodide as substrate at 100 uM measured for 1 min by spectrophotometric based Ellman's method relative to control
Sequence (P22303 whole entry): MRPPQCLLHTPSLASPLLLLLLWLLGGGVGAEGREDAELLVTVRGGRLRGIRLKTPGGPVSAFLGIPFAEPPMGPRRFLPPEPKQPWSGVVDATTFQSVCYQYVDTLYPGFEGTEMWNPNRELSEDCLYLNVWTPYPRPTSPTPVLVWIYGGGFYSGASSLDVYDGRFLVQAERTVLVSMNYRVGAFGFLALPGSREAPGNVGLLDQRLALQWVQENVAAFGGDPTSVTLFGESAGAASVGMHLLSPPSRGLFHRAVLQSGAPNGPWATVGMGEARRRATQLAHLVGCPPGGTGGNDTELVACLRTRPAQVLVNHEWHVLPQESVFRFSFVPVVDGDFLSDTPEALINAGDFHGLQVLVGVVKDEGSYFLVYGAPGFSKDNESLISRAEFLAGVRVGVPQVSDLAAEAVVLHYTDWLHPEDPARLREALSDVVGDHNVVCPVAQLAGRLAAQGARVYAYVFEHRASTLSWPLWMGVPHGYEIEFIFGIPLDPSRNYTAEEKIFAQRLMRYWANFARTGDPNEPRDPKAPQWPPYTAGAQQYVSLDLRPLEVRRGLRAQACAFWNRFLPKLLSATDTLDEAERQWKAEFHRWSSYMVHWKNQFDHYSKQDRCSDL
Lab note: compare inhibition against 30%. Equal or greater, write YES. Smaller, write NO.

MOLECULE: CCCCC(=O)O[C@@H]1C[N@@]2Cc3c(cc4c(c3OC)OCO4)[C@@]13C=C[C@H](OC)C[C@H]23
ASSIGNED CATEGORY: NO
--
MOLECULE: CO[C@@H]1C=C[C@@]23c4cc5c(cc4CN(C[C@@H]2O)[C@H]3C1)OCO5 [(+)-HAEMANTHAMINE]
ASSIGNED CATEGORY: NO
--
MOLECULE: COc1c2c(cc3c1OCO3)[C@]13C=C[C@H](OC)C[C@@H]1[N@](C2)C[C@H]3OC(=O)c1ccc2ccccc2c1
ASSIGNED CATEGORY: NO
--
MOLECULE: COc1ccc(C(=O)O[C@@H]2C[N@@]3Cc4c(cc5c(c4OC)OCO5)[C@@]24C=C[C@H](OC)C[C@H]34)cc1OC
ASSIGNED CATEGORY: NO
--
MOLECULE: CCC(=O)O[C@@H]1C[N@@]2Cc3c(cc4c(c3OC)OCO4)[C@@]13C=C[C@H](OC)C[C@H]23
ASSIGNED CATEGORY: NO
--
MOLECULE: COc1c2c(cc3c1OCO3)[C@]13C=C[C@H](OC)C[C@@H]1[N@](C2)C[C@H]3OC(=O)c1ccccc1[N+](=O)[O-]
ASSIGNED CATEGORY: YES
--
MOLECULE: COc1c2c(cc3c1OCO3)[C@]13C=C[C@H](OC)C[C@@H]1[N@](C2)C[C@H]3OC(=O)c1cccc2ccccc12
ASSIGNED CATEGORY: NO
--
MOLECULE: COc1cccc(C(=O)O[C@@H]2C[N@@]3Cc4c(cc5c(c4OC)OCO5)[C@@]24C=C[C@H](OC)C[C@H]34)c1
ASSIGNED CATEGORY: NO
--
MOLECULE: COc1ccc(C(=O)O[C@@H]2C[N@@]3Cc4c(cc5c(c4OC)OCO5)[C@@]24C=C[C@H](OC)C[C@H]34)cc1
ASSIGNED CATEGORY: NO
--
MOLECULE: COc1ccccc1C(=O)O[C@@H]1C[N@@]2Cc3c(cc4c(c3OC)OCO4)[C@@]13C=C[C@H](OC)C[C@H]23
ASSIGNED CATEGORY: YES
--
MOLECULE: COc1c2c(cc3c1OCO3)[C@]13C=C[C@H](OC)C[C@@H]1[N@](C2)C[C@H]3OC(=O)c1ccoc1
ASSIGNED CATEGORY: NO
--
MOLECULE: COc1c2c(cc3c1OCO3)[C@]13C=C[C@H](OC)C[C@@H]1[N@](C2)C[C@H]3OC(=O)c1ccccc1C
ASSIGNED CATEGORY: YES
--
MOLECULE: COc1c2c(cc3c1OCO3)[C@]13C=C[C@H](OC)C[C@@H]1[N@](C2)C[C@H]3OC(=O)c1cccc([N+](=O)[O-])c1
ASSIGNED CATEGORY: YES
